Where these numbers come from: the supplement of paper PMC11908140

B1: library; numbered along this chain (parent)
chain: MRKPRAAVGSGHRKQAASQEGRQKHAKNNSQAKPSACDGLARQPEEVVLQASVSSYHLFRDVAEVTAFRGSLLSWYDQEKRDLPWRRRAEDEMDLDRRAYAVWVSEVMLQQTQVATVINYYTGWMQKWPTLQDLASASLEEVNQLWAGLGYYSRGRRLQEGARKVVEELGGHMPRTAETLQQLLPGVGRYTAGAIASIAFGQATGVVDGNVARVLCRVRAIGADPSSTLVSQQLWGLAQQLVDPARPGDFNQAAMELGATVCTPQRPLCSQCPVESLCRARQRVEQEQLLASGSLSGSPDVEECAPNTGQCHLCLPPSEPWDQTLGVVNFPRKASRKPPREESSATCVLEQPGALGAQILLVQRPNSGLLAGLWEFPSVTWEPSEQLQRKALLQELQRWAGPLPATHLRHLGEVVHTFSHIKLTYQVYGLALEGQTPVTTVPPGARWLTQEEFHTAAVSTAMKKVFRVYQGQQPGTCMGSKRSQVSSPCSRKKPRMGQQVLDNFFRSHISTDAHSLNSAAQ

Variants of: B1
Assay: 8OG:A repair function score (normalized; synonymous = 0, nonsense = -1) (normalized log-likelihood score); higher = more repair activity (WT-like);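 note: cells sorted at 72 h after reporter transfection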
Conditions: with 8OG:A DNA repair reporter (GFP) in HEK-293 MUTYH KO cells
Please note: TRUE applies when 8OG:A repair function score is -0.08 or greater, and FALSE applies otherwise.

Worked examples follow.
# mutant.label, assigned.label
measured = [
    ("E140I", "FALSE"),
    ("T112Q", "FALSE"),
    ("P443H", "TRUE"),
    ("V438D", "TRUE"),
    ("R467D", "TRUE"),
    ("Y469Q", "FALSE"),
    ("P225V", "TRUE"),
    ("S55C", "TRUE"),
]

Input line: // inclusive: 8OG:A repair function score at least -0.08? input: "Q126P"
Output line: FALSE

Input line: // inclusive: 8OG:A repair function score at least -0.08? input: "R279I"
Output line: FALSE
